B1: POU domain, class 5, transcription factor 1, residues 134 to 212; numbered along this chain, Q01860 (parent)
chain: EESQDIKALQKELEQFAKLLKQKRITLGYTQADVGLTLGVLFGKVFSQTTICRFEALQLSFKNMCKLRPLLQKWVEEAD

Variants of: B1
Experiment: abundance fitness (aPCA) (normalised: wild type 0, dead -1); higher = more abundant; growth selection in yeast, the domain comes from the species named
Conditions: Homo sapiens
Measured Property: abundance fitness
Please give the numeric answer without any surrounding text.

Would you please look over these solved cases?
The variant listed as `D33M` has a reported abundance fitness of -0.497

The variant listed as `L27A` has a reported abundance fitness of -0.648

The variant listed as `C52M` has a reported abundance fitness of 0.451

The variant listed as `Q22A` has a reported abundance fitness of -0.151

The variant listed as `G28V` has a reported abundance fitness of -0.787

The variant listed as `L27N` has a reported abundance fitness of -0.429

The variant listed as `L59A` has a reported abundance fitness of -0.81

The variant listed as `F54V` has a reported abundance fitness of -0.625

New cases:
The variant listed as `L71D` has a reported abundance fitness of -0.869

The variant listed as `D33G` has a reported abundance fitness of -0.283

The variant listed as `A8E` has a reported abundance fitness of -0.08

The variant listed as `K7T` has a reported abundance fitness of -0.162

The variant listed as `F54R` has a reported abundance fitness of -0.621

The variant listed as `S47F` has a reported abundance fitness of -0.094
